Target: Vascular endothelial growth factor receptor 2 (Homo sapiens)
Sequence (P35968 whole entry, looked up): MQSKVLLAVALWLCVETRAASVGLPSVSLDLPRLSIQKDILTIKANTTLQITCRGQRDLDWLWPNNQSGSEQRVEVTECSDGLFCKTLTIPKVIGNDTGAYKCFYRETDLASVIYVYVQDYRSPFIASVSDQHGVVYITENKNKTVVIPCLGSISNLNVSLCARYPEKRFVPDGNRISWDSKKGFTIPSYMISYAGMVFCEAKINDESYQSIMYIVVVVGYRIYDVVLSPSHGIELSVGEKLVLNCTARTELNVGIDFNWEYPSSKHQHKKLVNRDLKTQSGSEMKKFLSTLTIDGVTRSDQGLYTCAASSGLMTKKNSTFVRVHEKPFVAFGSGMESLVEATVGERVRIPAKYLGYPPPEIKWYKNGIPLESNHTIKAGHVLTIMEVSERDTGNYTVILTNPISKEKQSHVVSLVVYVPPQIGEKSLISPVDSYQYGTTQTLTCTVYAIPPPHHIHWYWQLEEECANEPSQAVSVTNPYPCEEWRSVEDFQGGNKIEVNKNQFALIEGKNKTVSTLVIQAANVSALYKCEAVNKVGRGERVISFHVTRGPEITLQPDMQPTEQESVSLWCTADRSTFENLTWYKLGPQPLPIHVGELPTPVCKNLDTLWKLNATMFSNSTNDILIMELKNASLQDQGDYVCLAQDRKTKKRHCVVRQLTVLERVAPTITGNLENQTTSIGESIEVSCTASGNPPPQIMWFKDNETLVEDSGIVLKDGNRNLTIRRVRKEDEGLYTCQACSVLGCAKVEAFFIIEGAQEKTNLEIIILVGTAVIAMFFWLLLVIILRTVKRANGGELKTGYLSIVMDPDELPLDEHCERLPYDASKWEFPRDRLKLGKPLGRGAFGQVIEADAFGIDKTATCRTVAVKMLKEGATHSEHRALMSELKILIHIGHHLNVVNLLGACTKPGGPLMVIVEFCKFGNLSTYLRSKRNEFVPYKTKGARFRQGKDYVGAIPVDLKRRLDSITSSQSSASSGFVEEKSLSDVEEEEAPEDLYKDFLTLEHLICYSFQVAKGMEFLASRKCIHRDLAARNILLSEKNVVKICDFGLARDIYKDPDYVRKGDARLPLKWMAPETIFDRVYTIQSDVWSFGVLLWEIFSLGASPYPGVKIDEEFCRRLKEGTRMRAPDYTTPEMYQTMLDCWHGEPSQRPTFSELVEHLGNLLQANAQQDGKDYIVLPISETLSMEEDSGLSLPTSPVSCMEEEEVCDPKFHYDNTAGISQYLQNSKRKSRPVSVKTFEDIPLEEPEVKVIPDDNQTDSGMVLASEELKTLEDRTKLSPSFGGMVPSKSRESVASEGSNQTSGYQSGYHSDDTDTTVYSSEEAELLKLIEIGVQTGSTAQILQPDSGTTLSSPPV
observation_type: pIC50
The value called pIC50 is obtained by taking minus log10 of the concentration in mol/L.

The measured pIC50 associated with Nc1ncnc2occ(-c3ccc(NC(=O)Nc4cc(C(F)(F)F)ccc4Cl)cc3)c12 reads 6.73

# pIC50 of Nc1ncnc2occ(-c3ccc(NC(=O)Nc4ccc5ccccc5c4)cc3)c12 = 7.62

# pIC50 of Nc1ncnc2occ(-c3ccc(NC(=O)Nc4cc(C(F)(F)F)ccc4F)cc3)c12 [GW770249X] = 8.11

Briefly, pIC50 measured for Nc1ncnc2occ(-c3ccc(NC(=O)Nc4cccc(Oc5ccccc5)c4)cc3)c12 : 5.76

Consider Nc1ncnc2occ(-c3ccc(NC(=O)Nc4cccc5ccccc45)cc3)c12 . Its measured pIC50 is 6.35

Given item Nc1ncnc2occ(-c3ccc(NC(=O)Nc4cccc(C(F)(F)F)c4)cc3)c12 [GW795493X] , the value recorded as its pIC50 is 8.15
